Ref: ChEMBL document CHEMBL1201862

Test system: UACC-257
Experiment: NCI tumour cell line growth inhibition, 48 h
Active and inactive are the calls of the source. Cut-off read from the data, not from the text of the source: active = GI50 up to about 1.1 µM and inactive = higher.
Assign a class; possible classes are true (1) = active, false (0) = inactive

QUERY: Called result for NC(=O)c1ccccc1NC(=O)C(=O)C(c1cnc2ccc([N+](=O)[O-])cc2n1)[N+](=O)[O-] (centres undefined)
RESULT: false (0)

QUERY: Called result for "C[n+]1c(-c2ccc(/C=N/Nc3ccnc(N/N=C/c4ccc(-c5cn6ccccc6[n+]5C)cc4)n3)cc2)cn2ccccc21"
RESULT: false (0)

QUERY: Called result for CCCCCCCCCCCC(=O)OCC(C[As](=O)(O)O)OC(=O)CCCCCCCCCCC (centres undefined)
RESULT: false (0)

QUERY: Called result for C[C@H](CCC1SC1(C)C)C1CCC2(C)C3=C(CC[C@]12C)[C@@]1(C)CC[C@H](O)C(C)(C)C1CC3 (some centres undefined)
RESULT: false (0)

QUERY: Called result for "C/C(NC(=O)c1ccccc1)=C(/C(=O)c1ccccc1)[C@@H]1OC(C)(C)O[C@@H]1[C@H]1COC(C)(C)O1"
RESULT: false (0)

QUERY: Called result for "[N-]=[N+]=Nc1cc(=O)n(-c2ccccc2)c(=O)n1-c1ccccc1"
RESULT: false (0)

QUERY: Called result for "CC(C)(Oc1ccccc1)C(=O)Sc1c(-c2ccccc2)c(=O)n(-c2ccccc2)c(=S)n1-c1ccccc1"
RESULT: false (0)

QUERY: Called result for "CCOc1ccc(NC(=O)C(=O)CC(=O)c2c(C)[n+]([O-])c3ccccc3[n+]2[O-])cc1"
RESULT: false (0)

QUERY: Called result for "O=C(O)CNS(=O)(=O)c1ccc(NC(=O)c2ccc(F)cc2)cc1"
RESULT: false (0)

QUERY: Called result for "CC1=NN2C(=N)/C(=C/c3ccc(F)cc3)C(=O)N=C2S1"
RESULT: false (0)

QUERY: Called result for "COC(=O)/C(=C/c1ccc(OC)cc1)C(C(=O)O)=C(C)C"
RESULT: false (0)

QUERY: Called result for "Cc1c(C(=O)/C=C/c2cccc3ccccc23)[n+]([O-])c2ccccc2[n+]1[O-]"
RESULT: false (0)

QUERY: Called result for "N#Cc1sc2c(c1OC(=O)c1ccc(Cl)cc1)c(=O)n(-c1ccccc1)c(=S)n2-c1ccccc1"
RESULT: false (0)

QUERY: Called result for "C/C(CC/C(C)=N/O)=N\O"
RESULT: false (0)

QUERY: Called result for CCOC(=O)C(NC(=O)N(C1=NCC(C)S1)C1CCCCC1)(OC)C(F)(F)F (centres undefined)
RESULT: false (0)

QUERY: Called result for "CC(C)C(=O)/C=C/c1ccc(Br)cc1"
RESULT: false (0)

QUERY: Called result for "CCCCc1c2cnccc2c(CCCC)c2c1[nH]c1ccccc12"
RESULT: false (0)

QUERY: Called result for "CCCCCCCCCCCC[C@@H](O)[C@H]1CC[C@H]([C@H](O)CC[C@H](O)[C@@H]2CC[C@@H](CCCCCCCC3=C[C@H](C)OC3=O)O2)O1"
RESULT: false (0)

QUERY: Called result for "Cc1ccc([N+](=O)[O-])c2c(NCCC[N+](C)(C)[O-])ccnc12"
RESULT: false (0)

QUERY: Called result for COc1ccc(C2C3C(=O)C=CC(=O)C3[C@@H]2C)cc1OC (some centres undefined)
RESULT: false (0)

QUERY: Called result for "CC(C(=O)NCCNC(=O)CCC(=O)N(C)O)C(=O)NCCNC(=O)CCC(=O)N(C)O"
RESULT: false (0)

QUERY: Called result for C[C@H]1CCC/C=C/[C@@H]2C[C@H](OC3OC(CO)C(O)C(O)C3O)C[C@H]2[C@H](O)/C=C/C(=O)O1 (some centres undefined)
RESULT: false (0)

QUERY: Called result for "CCOC(=O)/C(=C/c1ccc[nH]1)P(=O)(OCC)OCC"
RESULT: false (0)

QUERY: Called result for O=C(CC(C(=O)c1cccs1)c1ccc2c(c1)OCO2)c1ccccc1 (centres undefined)
RESULT: false (0)

QUERY: Called result for CCOC(=O)CC1COc2ccc3c(c21)OCO3 (centres undefined)
RESULT: false (0)

QUERY: Called result for "Cc1cccc(C)c1NC(=S)NC=C1C(=O)c2ccccc2C1=O"
RESULT: false (0)

QUERY: Called result for "CN(C)Cc1cc(/N=N/c2ccc(Cl)cc2)ccc1OC(=O)c1ccccc1"
RESULT: false (0)

QUERY: Called result for "CNc1nc(N)cc(O)n1"
RESULT: false (0)

QUERY: Called result for "COc1cccc(/C=C2\C(=O)N(C(=O)Cc3ccccc3)N=C2C)c1"
RESULT: false (0)

QUERY: Called result for Cc1ccc2nc3ccccc3c(C3C4C(=O)N(c5ccc(F)cc5)C(=O)C4ON3C(C(N)=O)c3ccccc3)c2c1 (centres undefined)
RESULT: false (0)

QUERY: Called result for "O=[N+]([O-])c1ccc2[nH]nc(OCc3ccccn3)c2c1"
RESULT: false (0)

QUERY: Called result for "Oc1cc(O)c2c(c1)O[C@H](c1ccc(O)c(O)c1)[C@@H](O)C2"
RESULT: false (0)

QUERY: Called result for "NC(=O)CCC(CCC(N)=O)(CCC(N)=O)[N+](=O)[O-]"
RESULT: false (0)

QUERY: Called result for COC(=O)C(CC(=O)Nc1ccc(Cl)c(Cl)c1)C(=O)C(=O)NC1C2CC3CC(C2)CC1C3 (centres undefined)
RESULT: false (0)

QUERY: Called result for "CC[C@H]1C=CCC[C@@]2(C[C@@H]3CC[C@@H]4[C@H](C(=O)OCCCCCCCCCCCCCCCC(=O)N(CCCN)CCCCN)[C@]5(CCC[C@@H](C)O5)NC(=[N+]34)N2)O1"
RESULT: true (1)

QUERY: Called result for C=C1CCC2[C@@H](CCC3[C@]2(C)CCC[C@]3(C)C(=O)OC)C1CCO (some centres undefined)
RESULT: false (0)

QUERY: Called result for O=C1c2ccccc2C(=O)N1CC1(C(=O)O)NCCS1(=O)=O (centres undefined)
RESULT: false (0)

QUERY: Called result for "S=C(Cc1ccc2c(c1)Sc1ccccc1O2)N1CCOCC1"
RESULT: false (0)

QUERY: Called result for C1CN2N3CCCC23C1 (centres undefined)
RESULT: false (0)
